Where a name gives a salt, the structure may show the parent alone.
This section lists MIC readings for Enterobacter cloacae P99.
test_readout: MIC (µg/mL)

molecule="CC(C)(ON=C(C(=O)NC1C(=O)N2C(C(=O)[O-])=C(CSc3cc[n+](CC(F)(F)F)cc3)COC12)c1csc(N)n1)C(=O)O (centres unmarked) [Compound 16, (Sodium Salt)]" reported=128
molecule="C[n+]1ccc(SCC2=C(C(=O)[O-])N3C(=O)C(NC(=O)C(=NOCC(=O)O)c4csc(N)n4)C3OC2)cc1 (centres unmarked) [Compound 13, (Sodium Salt)]" reported=64
molecule="CC(C)(O/N=C(\\C(=O)N[C@@H]1C(=O)N2C(C(=O)[O-])=C(C[n+]3ccccc3)CS[C@H]12)c1csc(N)n1)C(=O)O [Ceftazidime, reference compound]" reported=64
molecule="CC1OC2C(NC(=O)C(=NOC(C)(C)C(=O)O)c3csc(N)n3)C(=O)N2C(C(=O)[O-])=C1CSc1cc[n+](C)cc1 (centres unmarked) [Compound 1, (Sodium Salt)]" reported=1
molecule="C[n+]1ccc(SCC2=C(C(=O)[O-])N3C(=O)C(NC(=O)C(=NOC(C)(C)C(=O)O)c4csc(N)n4)C3OC2)cc1 (centres unmarked) [Compound 14, (Sodium Salt)]" reported=128

====

Structures can show the parent of a compound that is named as a salt.
This section lists MIC readings for Esherichia coli TEM DC-2.
test_readout: MIC (µg/mL)

compound="CC(C)(ON=C(C(=O)NC1C(=O)N2C(C(=O)[O-])=C(CSc3cc[n+](CC(F)(F)F)cc3)COC12)c1csc(N)n1)C(=O)O (centres unmarked) [Compound 16, (Sodium Salt)]" measured_on="Esherichia coli TEM DC-2" reported=0.03
compound="C[n+]1ccc(SCC2=C(C(=O)[O-])N3C(=O)C(NC(=O)C(=NOCC(=O)O)c4csc(N)n4)C3OC2)cc1 (centres unmarked) [Compound 13, (Sodium Salt)]" measured_on="Esherichia coli TEM DC-2" reported=1
compound="C[n+]1ccc(SCC2=C(C(=O)[O-])N3C(=O)C(NC(=O)C(=NOC(C)(C)C(=O)O)c4csc(N)n4)C3OC2)cc1 (centres unmarked) [Compound 14, (Sodium Salt)]" measured_on="Esherichia coli TEM DC-2" reported=0.25
compound="CC(C)(O/N=C(\\C(=O)N[C@@H]1C(=O)N2C(C(=O)[O-])=C(C[n+]3ccccc3)CS[C@H]12)c1csc(N)n1)C(=O)O [Ceftazidime, reference compound]" measured_on="Esherichia coli TEM DC-2" reported=0.5
compound="CC1OC2C(NC(=O)C(=NOC(C)(C)C(=O)O)c3csc(N)n3)C(=O)N2C(C(=O)[O-])=C1CSc1cc[n+](C)cc1 (centres unmarked) [Compound 1, (Sodium Salt)]" measured_on="Esherichia coli TEM DC-2" reported=0.5

====

Assay: Concentration in Blood Serum after subcutaneous dosing (bioassay using Escherichia coli)
Assay type: in vivo
Conditions: mouse, sc, 1/4 hour, 25 mg/Kg subcutaneously, mice
Procedure: The concentration of the compound in the serum was determined by bioassay using Escherichia coli as assay microorganism.
Where a name gives a salt, the structure may show the parent alone.
Measured concentration at 0.25 h, listed per entry for reference.
test_readout: concentration at 0.25 h (ng/mL)

compound="C[n+]1ccc(SCC2=C(C(=O)[O-])N3C(=O)C(NC(=O)C(=NOC(C)(C)C(=O)O)c4csc(N)n4)C3OC2)cc1 (centres unmarked) [Compound 14, (Sodium Salt)]" reported=11500
compound="CC1OC2C(NC(=O)C(=NOCC(=O)O)c3csc(N)n3)C(=O)N2C(C(=O)[O-])=C1CSc1cc[n+](CC(=O)O)cc1 (centres unmarked) [Compound 9, (Sodium Salt)]" reported=32000
compound="CC(C)(ON=C(C(=O)NC1C(=O)N2C(C(=O)[O-])=C(CSc3cc[n+](CC(F)(F)F)cc3)COC12)c1csc(N)n1)C(=O)O (centres unmarked) [Compound 16, (Sodium Salt)]" reported=20000
compound="CC(C)(O/N=C(\\C(=O)N[C@@H]1C(=O)N2C(C(=O)[O-])=C(C[n+]3ccccc3)CS[C@H]12)c1csc(N)n1)C(=O)O [Ceftazidime, reference compound]" reported=20000
compound="CC1OC2C(NC(=O)C(=NOC(C)(C)C(=O)O)c3csc(N)n3)C(=O)N2C(C(=O)[O-])=C1CSc1cc[n+](C)cc1 (centres unmarked) [Compound 1, (Sodium Salt)]" reported=18500

====

system: Salmonella typhimurium LT-2; assay: Minimum Inhibitory Concentration (MIC), antibacterial spectrum in vitro; assay type: cell-based; conditions: Salmonella enterica; Salmonella typhimurium LT-2; read-out: Minimum Inhibitory Concentration (MIC)
Structures can show the parent of a compound that is named as a salt.
test_readout: MIC (µg/mL)

molecule="CO[C@@]1(NC(=O)C(C(=O)O)c2ccc(O)cc2)C(=O)N2C(C(=O)O)=C(CSc3nnnn3C)CO[C@@H]21 (stereo partly drawn) [Latamoxef, reference compound]" measured_on="Salmonella typhimurium LT-2" output_unit=µg/mL qualifier_sign== reported=0.05
molecule="CON=C(C(=O)NC1C(=O)N2C(C(=O)[O-])=C(CSc3cc[n+](CC(F)(F)F)cc3)C(C)OC12)c1csc(N)n1 (stereo not drawn) [Compound 6]" measured_on="Salmonella typhimurium LT-2" output_unit=µg/mL qualifier_sign=< reported=0.025
molecule="CC1OC2C(NC(=O)C(=NOC(C)(C)C(=O)O)c3csc(N)n3)C(=O)N2C(C(=O)[O-])=C1CSc1cc[n+](CCF)cc1 (stereo not drawn) [Compound 3, (Sodium Salt)]" measured_on="Salmonella typhimurium LT-2" output_unit=µg/mL qualifier_sign=< reported=0.025
molecule="CC1OC2C(NC(=O)C(=NOC(C)(C)C(=O)O)c3csc(N)n3)C(=O)N2C(C(=O)[O-])=C1CSc1cc[n+](C)cc1 (stereo not drawn) [Compound 1, (Sodium Salt)]" measured_on="Salmonella typhimurium LT-2" output_unit=µg/mL qualifier_sign== reported=0.05
molecule="CC1OC2C(NC(=O)C(=NOCC(=O)O)c3csc(N)n3)C(=O)N2C(C(=O)[O-])=C1CSc1cc[n+](CCF)cc1 (stereo not drawn) [Compound 19, (Sodium Salt)]" measured_on="Salmonella typhimurium LT-2" output_unit=µg/mL qualifier_sign== reported=0.1
molecule="CCN1CCN(C(=O)NC(C(=O)NC2C(=O)N3C(C(=O)[O-])=C(CSc4cc[n+](C)cc4)COC23)c2csc(N)n2)C(=O)C1=O (racemic) [Compound 20, (Sodium Salt)]" measured_on="Salmonella typhimurium LT-2" output_unit=µg/mL qualifier_sign== reported=0.2
molecule="CON=C(C(=O)NC1C(=O)N2C(C(=O)[O-])=C(CSc3cc[n+](CC(=O)O)cc3)C(C)OC12)c1csc(N)n1 (stereo not drawn) [Compound 7, (Sodium Salt)]" measured_on="Salmonella typhimurium LT-2" output_unit=µg/mL qualifier_sign=< reported=0.025
molecule="CC1OC2C(NC(=O)C(=NOC(C)(C)C(=O)O)c3csc(N)n3)C(=O)N2C(C(=O)[O-])=C1CSc1cc[n+](C(CF)CF)cc1 (stereo not drawn) [Compound 17, (Sodium Salt)]" measured_on="Salmonella typhimurium LT-2" output_unit=µg/mL qualifier_sign=< reported=0.025
molecule="CON=C(C(=O)NC1C(=O)N2C(C(=O)[O-])=C(CSc3cc[n+](CC(=O)O)cc3)COC12)c1csc(N)n1 (stereo not drawn) [Compound 11, (Sodium Salt)]" measured_on="Salmonella typhimurium LT-2" output_unit=µg/mL qualifier_sign=< reported=0.025
molecule="CCON=C(C(=O)NC1C(=O)N2C(C(=O)[O-])=C(CSc3cc[n+](CC(=O)O)cc3)C(C)OC12)c1csc(N)n1 (stereo not drawn) [Compound 8, (Sodium Salt)]" measured_on="Salmonella typhimurium LT-2" output_unit=µg/mL qualifier_sign== reported=0.05
molecule="CC1OC2C(NC(=O)C(=NOC(C)(C)C(=O)O)c3csc(N)n3)C(=O)N2C(C(=O)[O-])=C1CSc1cc[n+](CC(=O)O)cc1 (stereo not drawn) [Compound 5, (Sodium Salt)]" measured_on="Salmonella typhimurium LT-2" output_unit=µg/mL qualifier_sign== reported=0.1
molecule="CC(C)(ON=C(C(=O)NC1C(=O)N2C(C(=O)[O-])=C(CSc3cc[n+](CC(F)(F)F)cc3)COC12)c1csc(N)n1)C(=O)O (stereo not drawn) [Compound 16, (Sodium Salt)]" measured_on="Salmonella typhimurium LT-2" output_unit=µg/mL qualifier_sign=< reported=0.025

====

system: Salmonella typhimurium LT-2; test: Minimum Inhibitory Concentration (MIC), antibacterial spectrum in vitro; format: cell-based; details: Salmonella enterica; Salmonella typhimurium LT-2; read-out: Minimum Inhibitory Concentration (MIC)
Counter-ions that a name gives are not always drawn.
Measured MIC, listed per entry for reference.
test_readout: MIC

molecule="C[n+]1ccc(SCC2=C(C(=O)[O-])N3C(=O)C(NC(=O)C(=NOCC(=O)O)c4csc(N)n4)C3OC2)cc1 (stereo not drawn) [Compound 13, (Sodium Salt)]" measured_on="Salmonella typhimurium LT-2" test_readout=MIC reported="< 0.025 µg/mL"
molecule="C[n+]1ccc(SCC2=C(C(=O)[O-])N3C(=O)C(NC(=O)C(=NOC(C)(C)C(=O)O)c4csc(N)n4)C3OC2)cc1 (stereo not drawn) [Compound 14, (Sodium Salt)]" measured_on="Salmonella typhimurium LT-2" test_readout=MIC reported="< 0.025 µg/mL"
molecule="CC(C)(ON=C(C(=O)NC1C(=O)N2C(C(=O)[O-])=C(CSc3cc[n+](CCF)cc3)COC12)c1csc(N)n1)C(=O)O (stereo not drawn)" measured_on="Salmonella typhimurium LT-2" test_readout=MIC reported="0.5 µg/mL"
